target_desc: Recombinant G2019S-LRRK2 protein (Homo sapiens (Human), UniProt Q5S007, G2019S)
Sequence (Q5S007 whole entry G2019S): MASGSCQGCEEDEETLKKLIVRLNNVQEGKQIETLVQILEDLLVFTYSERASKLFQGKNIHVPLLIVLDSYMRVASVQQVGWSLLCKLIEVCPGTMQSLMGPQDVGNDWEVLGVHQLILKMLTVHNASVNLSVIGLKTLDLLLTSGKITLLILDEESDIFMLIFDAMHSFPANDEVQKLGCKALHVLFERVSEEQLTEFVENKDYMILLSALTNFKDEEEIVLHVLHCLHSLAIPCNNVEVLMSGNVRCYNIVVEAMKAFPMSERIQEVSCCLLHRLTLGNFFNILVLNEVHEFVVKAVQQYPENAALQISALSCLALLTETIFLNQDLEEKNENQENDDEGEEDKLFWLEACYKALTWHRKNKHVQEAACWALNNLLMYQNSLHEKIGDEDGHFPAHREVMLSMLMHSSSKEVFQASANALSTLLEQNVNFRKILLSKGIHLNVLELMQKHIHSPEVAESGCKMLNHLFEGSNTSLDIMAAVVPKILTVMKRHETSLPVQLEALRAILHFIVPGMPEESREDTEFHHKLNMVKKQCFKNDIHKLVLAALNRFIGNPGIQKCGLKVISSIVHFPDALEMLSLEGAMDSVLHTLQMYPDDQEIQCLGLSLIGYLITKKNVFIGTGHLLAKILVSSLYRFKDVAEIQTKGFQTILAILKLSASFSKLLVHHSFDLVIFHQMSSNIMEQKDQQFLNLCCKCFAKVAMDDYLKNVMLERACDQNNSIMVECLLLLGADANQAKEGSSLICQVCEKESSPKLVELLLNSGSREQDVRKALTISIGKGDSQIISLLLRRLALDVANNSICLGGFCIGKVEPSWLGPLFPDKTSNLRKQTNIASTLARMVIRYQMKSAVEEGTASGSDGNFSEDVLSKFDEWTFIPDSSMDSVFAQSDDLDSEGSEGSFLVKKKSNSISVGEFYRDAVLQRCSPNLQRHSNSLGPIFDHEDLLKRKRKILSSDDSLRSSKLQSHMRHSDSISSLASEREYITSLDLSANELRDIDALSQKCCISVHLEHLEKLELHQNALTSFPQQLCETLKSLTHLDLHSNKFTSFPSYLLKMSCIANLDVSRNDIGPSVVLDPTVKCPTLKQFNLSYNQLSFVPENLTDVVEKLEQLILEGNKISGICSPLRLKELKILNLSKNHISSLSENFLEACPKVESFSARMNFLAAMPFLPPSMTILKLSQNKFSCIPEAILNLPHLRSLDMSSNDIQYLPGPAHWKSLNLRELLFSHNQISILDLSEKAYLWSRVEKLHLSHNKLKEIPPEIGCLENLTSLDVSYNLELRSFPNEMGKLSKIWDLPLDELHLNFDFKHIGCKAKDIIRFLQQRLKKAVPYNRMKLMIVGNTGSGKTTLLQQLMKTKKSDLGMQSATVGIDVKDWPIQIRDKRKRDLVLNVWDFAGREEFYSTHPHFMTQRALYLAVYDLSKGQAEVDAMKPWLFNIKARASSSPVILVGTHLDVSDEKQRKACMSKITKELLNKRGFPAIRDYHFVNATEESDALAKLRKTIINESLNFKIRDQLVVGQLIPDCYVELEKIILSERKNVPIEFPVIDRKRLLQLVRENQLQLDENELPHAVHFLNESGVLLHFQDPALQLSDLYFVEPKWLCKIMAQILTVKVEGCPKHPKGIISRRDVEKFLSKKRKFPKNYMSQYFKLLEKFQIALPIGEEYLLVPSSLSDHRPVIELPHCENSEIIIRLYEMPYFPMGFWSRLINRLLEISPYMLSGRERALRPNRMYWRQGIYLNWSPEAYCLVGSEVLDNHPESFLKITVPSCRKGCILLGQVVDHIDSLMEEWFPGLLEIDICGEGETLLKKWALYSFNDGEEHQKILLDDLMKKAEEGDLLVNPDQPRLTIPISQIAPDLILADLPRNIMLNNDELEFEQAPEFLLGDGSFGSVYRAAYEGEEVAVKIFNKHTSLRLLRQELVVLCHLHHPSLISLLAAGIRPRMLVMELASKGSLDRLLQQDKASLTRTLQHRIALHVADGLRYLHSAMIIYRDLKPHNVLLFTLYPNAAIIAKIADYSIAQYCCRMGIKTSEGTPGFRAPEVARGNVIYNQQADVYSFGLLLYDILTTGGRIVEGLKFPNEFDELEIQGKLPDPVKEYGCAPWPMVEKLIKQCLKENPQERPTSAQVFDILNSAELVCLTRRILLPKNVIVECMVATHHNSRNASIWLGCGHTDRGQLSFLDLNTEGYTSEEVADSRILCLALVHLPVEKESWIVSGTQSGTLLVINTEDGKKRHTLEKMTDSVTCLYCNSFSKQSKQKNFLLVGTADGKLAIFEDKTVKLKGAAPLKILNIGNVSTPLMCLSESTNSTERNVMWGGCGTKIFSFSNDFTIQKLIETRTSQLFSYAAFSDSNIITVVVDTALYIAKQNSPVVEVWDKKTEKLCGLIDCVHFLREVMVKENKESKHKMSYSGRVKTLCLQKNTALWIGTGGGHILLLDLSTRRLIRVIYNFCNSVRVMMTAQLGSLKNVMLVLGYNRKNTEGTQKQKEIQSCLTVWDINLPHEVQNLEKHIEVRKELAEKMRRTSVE
measurement_notes: LRRK2 kinase activity, LanthaScreen TR-FRET assay (G2019S)
run_conditions: LRRKtide 400 nM, 25 μM ATP, 60 min
Protocol: LRRK2 kinase activity was measured using a LanthaScreen™ Kinase Activity Assay from ThermoFisher Scientific. Recombinant wild type or G2019S-LRRK2 protein (Life Technologies, PR8604B or PV4881, respectively), was incubated with a fluorescein-labeled peptide substrate called LRRKtide that is based upon ezrin/radixin/moesin (ERM) (Life Technologies, PV4901) in the presence of ATP and serially diluted compound. […]
measurement_name: IC50

* N#Cc1cnc(C(=O)Nc2ccc3[nH]nc(-c4cnoc4)c3c2)c2c1CCC2 | < 100 nM
* C/C=C/c1n[nH]c2ccc(NC(=O)c3nc(Cl)c(C#N)c(C)c3C)cc12 | < 100 nM
* Cc1cc(C#N)cnc1C(=O)Nc1ncc2[nH]nc(-c3ccoc3)c2n1 | 100 to 1000 nM
* COc1cc(C#N)cc(C)c1C(=O)Nc1ccc2[nH]nc(-c3cnco3)c2c1 | < 100 nM
* Cc1c(C#N)cnc(C(=O)Nc2ccc3[nH]nc(Br)c3c2)c1C | < 100 nM
* Cc1c(C#N)cccc1C(=O)Nc1cc(C)c2[nH]nc(-c3ccoc3)c2c1 | 100 to 1000 nM
* Cc1n[nH]c2ccc(NC(=O)c3cccc(C#N)c3C(C)C)cc12 | < 100 nM
* Cc1c(C#N)cnc(C(=O)Nc2ccc3[nH]nc(-c4cnoc4)c3c2)c1C | < 100 nM
* Cc1c(Cl)c(C(=O)Nc2ccc3[nH]nc(C4CC4)c3c2)nc(Cl)c1C#N | < 100 nM
* N#Cc1cnc(C(=O)Nc2ccc3[nH]nc(-c4ccoc4)c3c2)c(C(F)F)c1 | < 100 nM
* Cc1c(C#N)cnc(C(=O)Nc2ccc3[nH]nc(-c4cnn(C5CC5)c4)c3c2)c1C | < 100 nM
* C/C=C/c1n[nH]c2ccc(NC(=O)c3ncc(C#N)c(C)c3C)cc12 | < 100 nM
* COC(C)c1n[nH]c2ccc(NC(=O)c3ncc(C#N)c(C)c3C)cc12 (stereo not drawn) | 1000 to 10000 nM
* COc1n[nH]c2ccc(NC(=O)c3nc(Br)c(C#N)c(C)c3C)cc12 | < 100 nM
* Cc1c(C(=O)Nc2ccc3[nH]nc(-c4ccnc(N5CCOCC5)c4)c3c2)nc(Cl)c(C#N)c1C | < 100 nM
* Cc1cc(C#N)cnc1C(=O)Nc1ccc2[nH]nc(-c3ccoc3)c2c1 | < 100 nM
* Cc1cc(C#N)cnc1C(=O)Nc1ccc2[nH]nc(I)c2c1 | < 100 nM
* COc1nc(C(=O)Nc2ccc3[nH]nc(C)c3c2)c(C)c(C)c1C#N | < 100 nM

----------
Measured pIC50 accompanies every entry in the list below.
target_desc: Recombinant wild type LRRK2 protein (Homo sapiens (Human), UniProt Q5S007)
Sequence (Q5S007 whole entry): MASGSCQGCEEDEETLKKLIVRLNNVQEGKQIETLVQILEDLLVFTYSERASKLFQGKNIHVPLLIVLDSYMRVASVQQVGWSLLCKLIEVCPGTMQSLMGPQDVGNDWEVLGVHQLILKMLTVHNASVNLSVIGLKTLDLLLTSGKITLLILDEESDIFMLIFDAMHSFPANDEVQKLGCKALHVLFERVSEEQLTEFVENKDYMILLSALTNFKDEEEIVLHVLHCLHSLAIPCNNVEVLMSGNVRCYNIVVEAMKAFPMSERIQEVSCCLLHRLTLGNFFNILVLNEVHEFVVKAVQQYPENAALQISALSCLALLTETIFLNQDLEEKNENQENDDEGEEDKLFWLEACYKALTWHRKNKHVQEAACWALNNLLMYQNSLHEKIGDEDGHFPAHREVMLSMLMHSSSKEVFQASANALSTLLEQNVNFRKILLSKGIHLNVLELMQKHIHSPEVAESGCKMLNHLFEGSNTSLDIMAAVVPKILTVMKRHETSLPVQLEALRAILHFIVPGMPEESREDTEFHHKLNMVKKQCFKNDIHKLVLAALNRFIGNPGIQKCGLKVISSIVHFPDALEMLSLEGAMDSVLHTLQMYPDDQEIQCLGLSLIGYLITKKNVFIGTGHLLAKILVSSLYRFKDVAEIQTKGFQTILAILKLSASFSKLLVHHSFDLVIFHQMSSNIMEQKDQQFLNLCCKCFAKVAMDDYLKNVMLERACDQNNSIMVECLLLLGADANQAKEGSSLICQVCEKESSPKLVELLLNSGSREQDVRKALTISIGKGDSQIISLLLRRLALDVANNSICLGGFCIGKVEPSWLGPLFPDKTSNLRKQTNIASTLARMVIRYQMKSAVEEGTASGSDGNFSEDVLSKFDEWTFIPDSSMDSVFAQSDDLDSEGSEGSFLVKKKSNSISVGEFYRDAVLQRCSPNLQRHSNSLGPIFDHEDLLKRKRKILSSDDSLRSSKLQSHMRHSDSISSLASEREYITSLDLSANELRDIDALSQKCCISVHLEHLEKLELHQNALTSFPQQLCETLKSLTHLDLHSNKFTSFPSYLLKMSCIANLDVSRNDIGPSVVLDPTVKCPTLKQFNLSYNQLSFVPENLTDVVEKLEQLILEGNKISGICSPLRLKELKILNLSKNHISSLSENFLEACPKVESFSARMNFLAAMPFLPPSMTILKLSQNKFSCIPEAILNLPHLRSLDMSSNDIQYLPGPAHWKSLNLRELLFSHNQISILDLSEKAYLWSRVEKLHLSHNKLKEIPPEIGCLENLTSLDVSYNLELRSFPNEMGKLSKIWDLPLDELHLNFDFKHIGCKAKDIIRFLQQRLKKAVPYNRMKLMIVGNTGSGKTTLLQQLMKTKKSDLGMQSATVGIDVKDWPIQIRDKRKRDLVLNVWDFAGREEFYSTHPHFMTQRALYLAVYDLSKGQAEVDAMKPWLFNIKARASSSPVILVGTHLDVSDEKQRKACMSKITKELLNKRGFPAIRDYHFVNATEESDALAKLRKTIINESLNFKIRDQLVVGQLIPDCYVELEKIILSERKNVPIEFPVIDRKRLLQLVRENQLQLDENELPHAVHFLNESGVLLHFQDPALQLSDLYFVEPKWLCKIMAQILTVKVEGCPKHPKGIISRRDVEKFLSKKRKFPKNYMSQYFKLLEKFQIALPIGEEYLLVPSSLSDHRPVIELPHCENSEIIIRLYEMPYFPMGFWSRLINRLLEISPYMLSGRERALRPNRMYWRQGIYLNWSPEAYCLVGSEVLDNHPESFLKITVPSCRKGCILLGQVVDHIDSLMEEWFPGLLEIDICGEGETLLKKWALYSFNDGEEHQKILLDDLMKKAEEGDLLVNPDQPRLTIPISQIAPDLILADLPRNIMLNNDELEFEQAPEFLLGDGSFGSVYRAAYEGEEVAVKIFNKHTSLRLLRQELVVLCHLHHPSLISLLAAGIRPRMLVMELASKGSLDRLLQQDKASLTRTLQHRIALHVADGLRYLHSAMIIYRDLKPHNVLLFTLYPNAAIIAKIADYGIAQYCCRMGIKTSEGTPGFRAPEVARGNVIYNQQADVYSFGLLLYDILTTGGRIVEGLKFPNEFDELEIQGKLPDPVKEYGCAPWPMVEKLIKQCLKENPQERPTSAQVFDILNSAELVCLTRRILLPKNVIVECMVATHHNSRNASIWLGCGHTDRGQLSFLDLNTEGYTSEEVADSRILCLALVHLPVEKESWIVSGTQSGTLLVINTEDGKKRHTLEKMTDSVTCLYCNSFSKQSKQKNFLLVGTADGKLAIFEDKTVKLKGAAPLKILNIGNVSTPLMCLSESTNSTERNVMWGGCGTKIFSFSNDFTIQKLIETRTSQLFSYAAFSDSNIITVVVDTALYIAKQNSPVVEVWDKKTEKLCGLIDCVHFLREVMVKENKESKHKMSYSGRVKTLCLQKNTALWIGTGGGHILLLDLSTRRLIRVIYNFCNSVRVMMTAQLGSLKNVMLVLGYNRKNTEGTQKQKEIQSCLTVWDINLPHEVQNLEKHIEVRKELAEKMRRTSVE
measurement_notes: LRRK2 kinase activity, LanthaScreen TR-FRET assay (wild type)
run_conditions: LRRKtide 400 nM, 25 μM ATP, 60 min; read-out: LRRK2 WT IC50
pIC50: −log10 of the molar value.
measurement_name: pIC50

- COc1nc(C(=O)Nc2ccc3[nH]nc(C4CC4)c3c2)c(C)c(C)c1C#N [Example 304]: > 7.00
- Cc1cc(C#N)cnc1C(=O)Nc1ccc2[nH]nc(-c3cncc(C#N)c3)c2c1 [Example 42]: 6.00 to 7.00
- Cc1ccc(C#N)cc1C(=O)Nc1ccc2[nH]nc(-c3ccoc3)c2c1 [Example 17]: > 7.00
- Cc1c(C(=O)Nc2ccc3[nH]nc(-c4ccoc4)c3c2)nn(C)c1C#N [Example 93]: 6.00 to 7.00
- Cc1c(C(=O)Nc2ccc3[nH]nc(C)c3c2)nc(Cl)c(C#N)c1C [Example 298]: > 7.00
- Cc1cc(-c2n[nH]c3ccc(NC(=O)c4ncc(C#N)cc4C)cc23)cnn1 [Example 273]: 6.00 to 7.00
- Cc1cc(C#N)cnc1C(=O)Nc1ccc2[nH]nc(-c3cccc(C(F)(F)F)c3)c2c1 [Example 59]: 6.00 to 7.00
- Cc1ncc(-c2n[nH]c3ccc(NC(=O)c4ncc(C#N)cc4C)cc23)o1 [Example 129]: > 7.00

----------
target_desc: Recombinant G2019S-LRRK2 protein (Homo sapiens (Human), UniProt Q5S007, G2019S)
measurement_notes: LRRK2 kinase activity, LanthaScreen TR-FRET assay (G2019S)
run_conditions: LRRKtide 400 nM, 25 μM ATP, 60 min
Measured IC50 accompanies every entry in the list below.
measurement_name: IC50

* N#Cc1cccc(C(=O)Nc2ccc3[nH]nc(-c4cnco4)c3c2)c1F [Example 199] | < 100 nM
* Cc1c(C(=O)Nc2ccc3[nH]nc(C4CC4)c3c2)nc(C2CC2)c(C#N)c1C [Example 334] | < 100 nM
* Cc1cc(C#N)cnc1C(=O)Nc1ccc2[nH]nc(-c3ccc(=O)n(C)c3)c2c1 [Example 151] | < 100 nM
* COc1cccc(-c2n[nH]c3ccc(NC(=O)c4ncc(C#N)cc4C4CC4)cc23)c1 [Example 311] | < 100 nM

----------
target_desc: Recombinant wild type LRRK2 protein (Homo sapiens (Human), UniProt Q5S007)
measurement_notes: LRRK2 kinase activity, LanthaScreen TR-FRET assay (wild type)
run_conditions: LRRKtide 400 nM, 25 μM ATP, 60 min; read-out: LRRK2 WT IC50
pIC50: −log10 of the molar value.
measurement_name: pIC50

* COc1cc(C#N)ccc1C(=O)Nc1ccc2[nH]nc(-c3cnco3)c2c1 | > 7.00
* Cc1c(C#N)cnc(C(=O)Nc2ccc3[nH]nc([C@@H]4CC4c4ccccc4)c3c2)c1C (some centres unmarked) | 6.00 to 7.00
* N#Cc1cnc(C(=O)Nc2ccc3[nH]nc(-c4cnco4)c3c2)c(Cl)c1 | > 7.00
* Cc1coc(-c2n[nH]c3ccc(NC(=O)c4ncc(C#N)c(C)c4C)cc23)n1 | 6.00 to 7.00
* Cc1cc(C#N)cnc1C(=O)Nc1ccc2[nH]nc(-c3cnoc3C)c2c1 | < 5.00
* Cc1cc(C#N)cnc1C(=O)Nc1ccc2[nH]nc(-c3ccc(C(F)(F)F)nc3)c2c1 | 5.00 to 6.00
* Cc1cc(C#N)cnc1C(=O)Nc1ccc2[nH]nc(-c3cccc(N(C)C)c3)c2c1 | 6.00 to 7.00
* Cc1c(C#N)cnc(C(=O)Nc2ccc3[nH]nc(C)c3c2)c1Cl | 6.00 to 7.00
* Cc1cc(C#N)cnc1C(=O)Nc1ccc2[nH]nc(-c3ccc(CN4CCOCC4)s3)c2c1 | 6.00 to 7.00
* Cc1c(C#N)cnc(C(=O)Nc2ccc3[nH]nc(C(F)F)c3c2)c1C | 5.00 to 6.00
* Cc1cc(C#N)cnc1C(=O)Nc1ccc2[nH]nc(-n3ccnc3)c2c1 | 6.00 to 7.00
* COc1c(C#N)ccc(C)c1C(=O)Nc1ccc2[nH]nc(-c3cnco3)c2c1 | > 7.00
* Cc1c(C#N)cnc(C(=O)Nc2ccc3[nH]nc(-c4cnc(C(C)C)o4)c3c2)c1C | > 7.00
* N#Cc1ccc(C(=O)Nc2ccc3[nH]nc(-c4ccoc4)c3c2)cc1 | 6.00 to 7.00
* N#Cc1cnc(C(=O)Nc2ccc3[nH]nc(-c4cnoc4)c3c2)c(Cl)c1 | > 7.00
* Cc1c(C#N)cnc(C(=O)Nc2ccc3[nH]nc(-c4ccncn4)c3c2)c1C | 6.00 to 7.00
* Cc1c(C#N)cnc(C(=O)Nc2cc(F)c3[nH]ncc3c2)c1C | 5.00 to 6.00

----------
target_desc: Recombinant wild type LRRK2 protein (Homo sapiens (Human))
measurement_notes: LRRK2 kinase activity, LanthaScreen TR-FRET assay (wild type)
run_conditions: LRRKtide 400 nM, 25 μM ATP, 60 min; read-out: LRRK2 WT IC50
pIC50: −log10 of the molar value.
measurement_name: pIC50

• N#Cc1cccc(C(=O)Nc2ccc3[nH]nc(-c4cnn(C(F)F)c4)c3c2)c1C(F)(F)F = > 7.00
• Cc1c(C(=O)Nc2ccc3[nH]nc(-c4cnco4)c3c2)nc(Cl)c(C#N)c1C = > 7.00
• Cc1cc(C#N)ccc1C(=O)Nc1ccc2[nH]nc(C)c2c1 = 6.00 to 7.00
• Cc1cc(C#N)cnc1C(=O)Nc1ccc2[nH]nc(-c3cncc(OC(C)C)c3)c2c1 = 6.00 to 7.00
• Cc1c(C#N)cccc1C(=O)Nc1ccc2[nH]nc(-c3ccoc3)c2c1 = > 7.00
• COc1cc(C#N)cc(C)c1C(=O)Nc1ccc2[nH]nc(-c3cnco3)c2c1 = > 7.00
• COc1cc(C#N)ccc1C(=O)Nc1ccc2[nH]nc(-c3cnn(C(F)F)c3)c2c1 = > 7.00
• Cc1c(C(=O)Nc2ccc3[nH]nc(C)c3c2)nc(Br)c(C#N)c1C = > 7.00
• Cc1c(C#N)cnc(C(=O)Nc2ccc3[nH]nc(C4CC4(C)C)c3c2)c1C (centres unmarked) = 5.00 to 6.00
• Cc1cc(C#N)cc(F)c1C(=O)Nc1ccc2[nH]nc(-c3cnco3)c2c1 = > 7.00
• Cc1cc(C#N)cnc1C(=O)Nc1ccc2[nH]nc(-c3cccc(N4C[C@@H](C)O[C@@H](C)C4)c3)c2c1 = 6.00 to 7.00
• CCc1cc(-c2n[nH]c3ccc(NC(=O)c4ncc(C#N)c(C)c4C)cc23)ccn1 = > 7.00
• Cc1cc(C#N)cnc1C(=O)Nc1ccc2[nH]nc(-c3ccn(C)c(=O)c3)c2c1 = 5.00 to 6.00
• Cc1c(C#N)cnc(C(=O)Nc2ccc3[nH]nc(-c4cn(C)nn4)c3c2)c1C = 6.00 to 7.00
• Cc1cc(C#N)c(C)nc1C(=O)Nc1ccc2[nH]nc(-c3ccoc3)c2c1 = > 7.00
• N#Cc1cnc(C(=O)Nc2ccc3[nH]nc(-c4ccoc4)c3c2)c(C(F)F)c1 = 6.00 to 7.00
• C=Cc1nc(C(=O)Nc2ccc3[nH]nc(C4CC4)c3c2)c(C)c(C)c1C#N = 6.00 to 7.00
